# Experimental System: T1, ANTIBODY EXPRESSION CONTROL
# T1 construct: also called mouse anti-canine antibody (capture reagent of the expression control ELISA)
# Assay Explanation: SPR Biacore, expression control
Give koff for every item shown.
API: value field is a number in s⁻¹; no unit string.

// query Name the recorded koff for Mu_19F07_VL (SEQ ID NO: 49)_Q90A (antibody, V domains shown) VH: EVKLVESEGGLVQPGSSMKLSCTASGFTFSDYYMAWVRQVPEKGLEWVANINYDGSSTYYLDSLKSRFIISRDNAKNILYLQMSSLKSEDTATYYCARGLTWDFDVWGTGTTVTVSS VL: DIVMTQSHKFMSPSVGDRVSITCKASQDVDTAVAWYQQKPGQSPKLLIYLASTRHTGVPDRFTGSGSGTDFTLTISNVQSEDLADYFCQAYSRFPLTFGAGTKLELKR .
// result 5.29e-05

// query Quick check: koff of Mu_19F07_VL (SEQ ID NO: 49)_Q89A (antibody, V domains shown) VH: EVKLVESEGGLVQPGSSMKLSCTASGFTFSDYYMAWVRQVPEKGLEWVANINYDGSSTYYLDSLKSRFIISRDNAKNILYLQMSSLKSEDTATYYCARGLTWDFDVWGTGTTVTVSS VL: DIVMTQSHKFMSPSVGDRVSITCKASQDVDTAVAWYQQKPGQSPKLLIYLASTRHTGVPDRFTGSGSGTDFTLTISNVQSEDLADYFCAQYSRFPLTFGAGTKLELKR ?
// result 4.3e-05
